src = ChEMBL document CHEMBL5724796

# target or test system: Cyclin-dependent kinase 2 (Homo sapiens)
# measurement context: Compound concentration 20.0 uM
# Description: Thermal Shift Assay. Domain: start/stop: M1-L298
Non-standard residues stand in square brackets, D forms with d. Residues, ends and D or L forms follow the SMILES beside them. *: point of attachment. Tyr(3-Cl) = N[C@@H](Cc1ccc(O)c(Cl)c1)C(=O)O; Benzoyl(3,5-Cl2) = O=C(c1cc(Cl)cc(Cl)c1)*; Lys(Et2) = CCN(CC)CCCC[C@H](N)C(=O)O; Gly(cPent) = N[C@H](C(=O)O)C1CCCC1; NH(propargyl) = C#CCN*
result type: ΔTm (°C)
Number only, in °C; omit the unit.

The cases that follow already have their ΔTm on record.
molecule	ΔTm, °C
Cc1cc(OCCCNCCC(N)=O)ccc1Cc1c(O[C@@H]2O[C@H](CO)[C@@H](O)[C@H](O)[C@H]2O)n[nH]c1C(C)C	0.03
COc1cc2/c(=N/c3ccc(Br)cc3F)nc[nH]c2cc1OCC1CCN(C)CC1	0.52
Cc1cc(C)nc(SCC(=O)Nc2ncc(Cc3cccc(OCc4cn(Cc5ccccc5)nn4)c3)s2)n1	-3.98

Qu. Provide ΔTm value for the following molecule: CCCC(NC(=O)C(CC(C)C)NC(=O)OCc1ccccc1)C(=O)C(=O)NCc1ccccn1 (racemic)
Ans. -0.66

Qu. Provide ΔTm value for the following molecule: COC(=O)[C@@H]1CC2=CC(=O)CC[C@]2(C)[C@@]23O[C@@H]2C[C@@]2(C)[C@@H](CC[C@@]24CCC(=O)O4)[C@H]13
Ans. -0.21

Qu. Provide ΔTm value for the following molecule: C#CCNC(=O)[C@H](CO)NC(=O)[C@H](CCCCN(CC)CC)NC(=O)[C@@H](NC(=O)[C@@H](NC(=O)[C@H](Cc1ccc(O)c(Cl)c1)NC(=O)c1cc(Cl)cc(Cl)c1)C1CCCC1)[C@@H](C)CC ({Benzoyl(3,5-Cl2)}-[Tyr(3-Cl)][Gly(cPent)]I[Lys(Et2)]S-{NH(propargyl)})
Ans. 0.1

Qu. Provide ΔTm value for the following molecule: Cc1ncsc1-c1ccc([C@H](C)NC(=O)[C@@H]2C[C@@H](O)CN2C(=O)[C@@H](NC(=O)COCCCOCCNC(=O)C[C@@H]2N=C(c3ccc(Cl)cc3)c3c(sc(C)c3C)-n3c(C)nnc32)C(C)(C)C)cc1
Ans. -3.66

###

// ΔTm lookup, one value per entry
# target or test system: Bromodomain-containing protein 4 (Homo sapiens) (UniProt O60885)
# measurement context: Compound concentration 20.0 uM
// return the numeric value with its unit appended

The cases that follow already have their ΔTm on record.
>>> print(df.to_string())
                                smiles_text  result_type    result
0            CN(Cc1cc(Br)cc(Br)c1N)C1CCCCC1          ΔTm  -2.64 °C
1  O=C(NCc1ccc(Cl)cc1)C1CCN(S(=O)(=O)c2cc(Cl)cc(Cl)c2)CC1          ΔTm  -2.83 °C
2  COc1cc2c(cc1OC)[C@H]1C[C@@H](OC(=O)[C@@H](N)C(C)C)[C@H](CC(C)C)CN1CC2          ΔTm   1.87 °C

Could you now look at the following molecule, please?
Qu. GET ΔTm | system: Bromodomain-containing protein 4 (Homo sapiens) (UniProt O60885) | item: COc1cc2c(NCC3CCN(C)CC3)cc(-c3ccc(C)o3)nc2cc1OCCCN1CCCC1
Ans. -1.85 °C
